- experimental.system: MSH2 (MutSα subunit);MSH6 (MutSα subunit) (Homo sapiens;Homo sapiens, UniProt P43246;P52701 1-934;1-1360, |)
- protocol.summary: EMSA; apparent Kd; homoduplex competitor EDL365/EDL366 in reaction; no Mg2+, 1 mM EDTA; 25 mM Tris pH 7.7, 100 mM KCl, 1 mM EDTA, 1 mM DTT, 7.5% glycerol, 10 fmol labeled duplex in 30 µl, homoduplex competitor, on ice 5 min; 6% native PAGE in 0.5x
- setup.conditions: protein: recombinant;recombinant; tags: ;; copies: 1;1; label: 5'-32P on strand 1 (EDL56); blunt, 30 bp, single U•G mismatch
reported.endpoint: Kd (nM)
Give your result in nM as a bare value.

Request: Requested field: Kd. Item: U•G duplex (EDL56/EDL364) (dsDNA, deoxyuridine at position 17 of strand 1, mispaired with G) DNA 1: GCCGAATTTCTAGAATUGAAAGCTTGCTAG DNA 2: CTAGCAAGCTTTCGATTCTAGAAATTCGGC
Response: 70

src = paper PMC2606688
